Test system: MS2 coat protein
Assay: apparent KD of MS2 coat protein; designed switch direction (-1 OFF switch, 1 ON switch): -1; higher = weaker reporter binding
Conditions: input ligand: FMN 200 uM
Use 100 nM as the dividing line for apparent KD of MS2 coat protein, with the line itself on the satisfied side and lower values as not satisfied.

| sequence.input | label.class |
| --- | --- |
| ACGACCUGAGGAUAUACAUGAGGAUCACCCAUGUAUGCAACAGCCGGGAAAUCCCGAUGUAGAAGGCAGGAAAA [Eternabot (Original) Solution 26] (Eterna round: R97, puzzle: Exclusion 3) | satisfied |
| ACUCAGUGAGGAUAUCGCCAGAGAGCCACAACGGCCUCUGAUGAGAAGGCACAUGAGGAUCACCCAUGUAAGCA [EX4 C.2] (Eterna round: R97, puzzle: Exclusion 4) | not satisfied |
| CUCGUGCAGCAAAGCUGUACGAGUACAUGAGGAUCACCCAUGUAGGAUAUGGUACGCAAAGCGUGCCAGAAGGACGUGAGUUAG [Mat - Exclusion NG 3 - Mod of JL - D95] (Eterna round: R96, puzzle: Exclusion NG 3) | satisfied |
| AUUGAUAGCACAGGAUAUUGAGAUUUGAAUUGACAAGAAGGGUGUACAUGAGGAUCACCCAUGUAAUGGUUGCCUCGUUGAUUA [JR_ExcNG1_Sub004] (Eterna round: R96, puzzle: Exclusion NG 1) | satisfied |
| UUAAUUAAUUAAUUAUAAGAUCAACAUGAGGAUCACCCAUGUGAGGAUAUCAGCUCGUGUAGAGCUGAGAAGGCACAAAUAAUU [ExNG3/16-B3] (Eterna round: R96, puzzle: Exclusion NG 3) | not satisfied |
| GGAGAGAGAGGAUAUGGAGGUUGGAACAUGAGGAUCACCCAUGUUAAACCUCAUGACCGACUAGAAGGCUCAGUCC [AK-MS2ROC-r4-exclusion5-9.1] (Eterna round: R97, puzzle: Exclusion 5) | not satisfied |
| GUACUGACAGGAUAUACAUGAGGAUCACCCAUGUCCUUAUGCUGACAAAAGUCAGCAAGUAGAAGGGUCUGUAC [Omei Ex3 Model Bachelor's Dilema v2] (Eterna round: R97, puzzle: Exclusion 3) | satisfied |
| CCUCAUAUUUAGGAUAUGAUUGGUAAUUAUUAGUUAGAAGGAGGUACAUGAGGAUCACCCAUGUAAAAUUUUUU [-13.7, -10.8 kcal, 32% A] (Eterna round: R97, puzzle: Exclusion 6) | not satisfied |
| AGGGUAAAGUUAGGAUAUGCGAAUAAUCCAGACGCAGAAGGAACAGGUCGCAUGUGAGUCACAUGAGGAUCACCCAUGUAACUA [Ceissoar] (Eterna round: R96, puzzle: Exclusion NG 1) | satisfied |
